- Test system: HEPG2
- experiment: Euclidean distance of Cell Painting phenotypic profile (signed KS, 77 features) to DMSO centroid (dimensionless distance); 5 or 10 uM (library dependent); higher = stronger phenotypic change vs DMSO (phenoactivity)
- condition-details: 48 h
# binarize Euclidean distance: threshold 0.7 inclusive, high side Satisfied, low side Not satisfied

>>> discrete_label("Cc1cc2ncc(C(=O)NCC(C)(C)NCC(=O)N3CCC[C@H]3C#N)cn2n1")
"Not satisfied"
>>> discrete_label("S=C(NCc1ccc2c(c1)OCO2)N1CCN(c2ncnc3c2oc2ccccc23)CC1")
"Satisfied"
>>> discrete_label("CCCCC(=O)O[C@H]1CC[C@H]2[C@@H]3CCc4cc(O)ccc4[C@H]3CC[C@]12C [Estradiol valerate]")
"Not satisfied"
>>> discrete_label("CC1(C)OCCn2c1nc1c(N3CCOCC3)nc(-c3cnc(N)nc3)nc12")
"Satisfied"
>>> discrete_label("Cc1[nH]c(=O)c(C#N)cc1-c1ccc2nccn2c1")
"Not satisfied"

Identify whether the reported Euclidean distance of the following compound is 0.7 or greater: O=C(O)CCn1c2c(c3ccccc31)C[C@H](NS(=O)(=O)c1ccc(F)cc1)CC2
Satisfied

Form field: Euclidean distance at least 0.7? Entry: Cc1ccc(NC(=O)C2(c3ccc4c(c3)OC(F)(F)O4)CC2)nc1-c1cccc(C(=O)O)c1
Not satisfied

// provenance: the supplement of paper PMC10127200
